Target: prefusion-stabilized Nipah virus fusion (F) glycoprotein, construct NiVF_prefusion (Nipah virus, Malaysian strain, stabilised)

| BINDER | binding result |
| --- | --- |
| 201805_NiV_P1_A6 (antibody, V domains shown) VH: LCLLTSSRSGLVRPGASVKLSCKASGYSFTSYWMNWVKQRPGHGLEWIGMIHPSDSETRLNQRFKDKATLTVDKSSSTAYMQLSSPTSEDSAVYYCAREDFYAMDYWGQGTSVTFSA VL: DIVMSQSPSSLAVSVGEKITMSCKSSQSLLYSSNKKKYLAWYQQKPGQSPKLLIYWASTRESGVPDRFTGSGSGTDFTLTISSVKAEDLAVYYCQQYYSYPYTFGGGPSNKR | binds |
| 201805_NiV_PL3_H3 (antibody, V domains shown) V domain 1: EVQLEESGGGLVPGGSLKLSCAASGFTFISYAMSWIRQTPEKRLEWVATITSGGSYTYYPDSVMGRFTISRDNAKNTLHLQMSSLRSEDTAIYYCARGGYGSISPYYFDYWGQGTTLTSSA V domain 2: DIQMTQSSSSFSVSLGDRVTITCKAGEDIYNRLAWYQQKPGNAPRLLISGAISLETGVPSRFSGSGSGKDYTLSITSLQTEDVATYYCQQYWTNPWTFGGGTKLKSN | binds |
| 201805_NiV_PL4_D5 (antibody, V domains shown) VH: QIQLVQSGPELKKPGETVKISCKASGFTFTNYGINWVKQAPGKGLKWMGWTDTFTGEPTYADDFKGRFAFSLETSASTAYLQINNLKNEDMATYFCARQGWGEAMDYWGQGTSVTVSA VL: DVLDEQFHFLPVSLGDQASISCRSSQSIVHSNGNTYLEWYLQKPGQSPKLLIYKVSNRFSGVPDRFSGSGSGTDFTLKISRVEAEDLGVYYCFQGSHVPWTFGGGTKLEIK | binds |

Value source: paper PMC10021056
